# target_of_assay: hGIPR (Homo sapiens, UniProt P48546)
# Sequence (P48546 22-466): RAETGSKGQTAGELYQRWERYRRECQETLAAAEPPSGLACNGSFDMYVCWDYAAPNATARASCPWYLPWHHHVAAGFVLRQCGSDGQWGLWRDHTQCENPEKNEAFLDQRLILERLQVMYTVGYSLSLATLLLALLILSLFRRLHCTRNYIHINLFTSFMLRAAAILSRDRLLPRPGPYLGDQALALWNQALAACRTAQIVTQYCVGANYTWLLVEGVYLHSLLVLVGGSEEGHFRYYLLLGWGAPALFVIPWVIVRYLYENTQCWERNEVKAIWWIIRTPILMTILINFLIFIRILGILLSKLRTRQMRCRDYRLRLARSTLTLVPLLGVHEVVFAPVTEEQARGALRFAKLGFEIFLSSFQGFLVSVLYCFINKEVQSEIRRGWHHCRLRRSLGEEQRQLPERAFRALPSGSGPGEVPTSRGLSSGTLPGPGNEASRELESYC
# assay: Functional cAMP activation in the presence of 0.1% casein (no HSA);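 also: intracellular cAMP rise after 30 min at 37 °C read by HTRF against a standard curve, scaled between buffer alone (0%) and top control ligand concentration (100%), four-parameter fit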
# Type: cell-based
# test_context: in the presence of 0.1% casein (no HSA); geometric mean; read-out: Relative cAMP EC50, hGIPR
Starred links: 1 amine or outer side, 2 acyl side, 3 side chain; linkers in the order of their positions; H or OH if unused. Non-standard residues stand in square brackets, D forms with d. Groups on a side chain read outwards from the residue. *: point of attachment. C20 diacid = O=C(O)CCCCCCCCCCCCCCCCCCC(=O)*; C18 diacid = O=C(O)CCCCCCCCCCCCCCCCC(=O)*; γGlu = O=C(O)[C@H](CCC(=O)[*:2])N[*:1]; αMe4Pal = C[C@](N)(Cc1ccncc1)C(=O)O; αMeY = C[C@](N)(Cc1ccc(O)cc1)C(=O)O; 4Pal = N[C@@H](Cc1ccncc1)C(=O)O; αMeL = CC(C)C[C@](C)(N)C(=O)O; AEEA = NCCOCCOCC(=O)O; Aib = CC(C)(N)C(=O)O
The entries below are paired with their reported EC50.
Lab book: enter the figure in nM, no units written.

Worked examples follow.
>>> quantitative_readout("H-Y[Aib]QGTFTSDFSK[αMeL]LDKK([AEEA-AEEA-γGlu-C20 diacid])AQ[Aib]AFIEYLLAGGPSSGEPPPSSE-NH2 [Example 5]")
0.177
>>> quantitative_readout("H-Y[Aib]QGTFTSD[4Pal]SQ[αMeL]LDKK([γGlu-γGlu-C18 diacid])AQ[Aib]AFIE[αMeY]LLEGGPSSGAPPPSGS-NH2 [Example 938]")
0.13

Turning to the following substance.
QUERY: Could you tell me which EC50 is on file for H-Y[Aib]QGTFTSD[4Pal]SQ[αMeL]LDKK([AEEA-AEEA-γGlu-C18 diacid])AQ[αMe4Pal]AFIEYLIE[Aib]GPSSGAPPPSGS-NH2 [Example 816] ?
RESULT: 0.297
